assay: Acute toxicity, intravenous, in mice; conditions: mouse, in vivo, read-out: LD-50 I.V. in mice
Structures can show the parent of a compound that is named as a salt.
property label: LD50 (mg/kg)
Could you give me the number in mg/kg? Just the number is fine.

As a guide, the following entries are already answered.
{"columns": ["molecule", "result unit", "readout number"],
 "data": [
  ["CC(C)(C)c1ccc2c(c1)OCC(CN1CCN(CCO)CC1)O2 (stereo not drawn) [Example 5, dihydrochloride]", "mg/kg", 140],
  ["OCCN1CCN(CC2COc3ccccc3O2)CC1 (stereo not drawn)", "mg/kg", 97],
  ["CC(=O)OCCN1CCN(CC2COc3ccccc3O2)CC1 (stereo not drawn) [Example 7, dihydrochloride]", "mg/kg", 86],
  ["OCC(O)CN1CCN(CC2COc3ccccc3O2)CC1 (stereo not drawn) [Example 3, dihydrochloride]", "mg/kg", 260],
  ["CCC(=O)OCCN1CCN(CC2COc3ccccc3O2)CC1 (stereo not drawn) [Example 6, dihydrochloride]", "mg/kg", 109]
]}

Note: attention shifts to another entry.
So what does the record say about LD50 for c1cnc(N2CCN(CC3COc4ccccc4O3)CC2)nc1 (stereo not drawn) [Example 8, dihydrochloride] ?
145
